Entry source: patent US20100216751A1

Assay: Pharmacokinetic evaluation of liquid bevirimat dosage forms, oral gavage, male Cynomolgus monkeys
Settings: male, cynomolgus monkey, in vivo, po, 50 mg/monkey, Plasma Concentration, PG/glycerin/Vitamin ETPGS/Tween80/Plasdone C15 formulation; 4.0 hr; AVG
property measured: concentration at 4 h

stdin: State its concentration at 4 h: `C=C(C)[C@@H]1CC[C@]2(C(=O)O)CC[C@]3(C)[C@H](CC[C@@H]4[C@@]5(C)CC[C@H](OC(=O)CC(C)(C)C(=O)O)C(C)(C)[C@@H]5CC[C@]43C)[C@@H]12`
stdout: 53.6 µg/mL

---

Assay: Pharmacokinetic evaluation of liquid bevirimat dosage forms, oral gavage, male Cynomolgus monkeys
Details: male, cynomolgus monkey, in vivo, po, 200 mg, pH 8
property measured: Cmax (µg/mL)
Numbers only, in µg/mL.

stdin: Provide measured Cmax value, entry: C=C(C)[C@@H]1CC[C@]2(C(=O)O)CC[C@]3(C)[C@H](CC[C@@H]4[C@@]5(C)CC[C@H](OC(=O)CC(C)(C)C(=O)O)C(C)(C)[C@@H]5CC[C@]43C)[C@@H]12 [Bevirimat]
stdout: 225
